# System: p-IKKa levels in L363 (NIK translocated multiple myeloma) cells
# assay.remarks: Assay 2: Effect of compounds on p-IKKa levels in L363 (NIK translocated multiple myeloma) cells
# Type: cell-based
# condition.set: Homo sapiens, L-363, 6 h, read-out: Assay 2 IC50 (nM), p-IKKa (Ser 176/180) in BAFF stimulated L363 cells with MG132, 6 h; average if tested more than once
measurement.label: IC50

Count: 4. Required value per item: IC50.
1. CCC(Nc1nccc(-c2cccc(-c3cc([C@]4(O)CCN(C)C4=O)on3)n2)n1)c1ccn(C)n1 (stereo partly shown)
2. C[C@H](Nc1nccc(-c2cccc(-c3cc([C@]4(O)CCN(C)C4=O)on3)n2)n1)c1cn2ccccc2n1
3. C[C@H](Nc1nccc(-c2cccc(-c3cc([C@]4(O)CCN(C)C4=O)on3)n2)n1)C(=O)N(C)c1ccccc1
4. CN1CC[C@@](O)(c2cc(-c3cccc(-c4ccnc(NCC(=O)N5CC(F)(F)C5)n4)n3)no2)C1=O

1. 50 to 500 nM
2. > 500 nM
3. > 500 nM
4. > 500 nM
